Tested system: binding partner of C5A (XPA23)
Assay protocol: Biacore K-off
Readout type: fold difference in affinity vs original (fold)
The response must be a number in fold with no trailing unit.

Q. Tell me fold difference in affinity vs original reported for C5A (XPA23) VL N30W (antibody, V domains shown) VH: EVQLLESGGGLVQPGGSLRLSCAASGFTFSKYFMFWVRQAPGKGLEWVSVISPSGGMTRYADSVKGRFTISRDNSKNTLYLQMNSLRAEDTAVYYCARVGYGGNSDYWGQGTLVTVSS VL: DIQMTQSPSSVSASVGDRLTIICRASQDIWRWLAWYQQTPGNAPKLLIHSATSLQSGVPSRFSGSGSGTDFTLTINSLQPEDFATYYCQQADSFPLTFGGGTKVEIK
A. 1.06

Q. Please look at this binder and report its fold difference in affinity vs original: C5A (XPA23) VL L96A (antibody, V domains shown) VH: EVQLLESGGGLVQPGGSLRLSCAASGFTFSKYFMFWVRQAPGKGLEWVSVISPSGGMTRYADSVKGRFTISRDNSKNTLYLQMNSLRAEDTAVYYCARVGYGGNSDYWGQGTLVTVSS VL: DIQMTQSPSSVSASVGDRLTIICRASQDINRWLAWYQQTPGNAPKLLIHSATSLQSGVPSRFSGSGSGTDFTLTINSLQPEDFATYYCQQADSFPATFGGGTKVEIK
A. 0.26
